# pIC50 listing for each entry below
Test system: human lung cancer strain NCI-H441
Assay type: cell-based
pIC50: −log10 of the molar value.
READOUT_LABEL: pIC50

1) CC[C@H](C)[C@@H]1NC(=O)[C@H](C2CCC2)N(C)C(=O)C[C@@H](C(=O)N(C)CC)N(C)C(=O)[C@H](C2CCCC2)N(C)C(=O)C2(CC(C)(C)C2)NC(=O)[C@@H]2C[C@H](C)CN2C(=O)[C@H](CCc2ccc(C(F)(F)F)c(OC)c2)NC(=O)CN(C)C(=O)[C@H](Cc2ccc(C(F)(F)F)cc2)N2CC/C=C\C[C@@H](C2=O)N(C)C(=O)CN(C)C1=O | 7.71
2) CCO[C@@H]1C[C@H]2C(=O)NC3(CCCC3)C(=O)N(C)[C@@H](C3CCCC3)C(=O)N(C)[C@H](C(=O)N(C)C)CC(=O)N(C)[C@@H](CC(C)C)C(=O)N[C@@H]([C@@H](C)CC)C(=O)N(C)CC(=O)N(C)[C@H]3C/C=C\CCN(C3=O)[C@@H](Cc3ccc(C(F)(F)F)cc3)C(=O)N(C)CC(=O)N[C@@H](CCc3ccc(C(F)(F)F)c(Cl)c3)C(=O)N2C1 | 8.10

---

# IC50 listing for each entry below
System: human lung cancer strain NCI-H441
Assay type: cell-based
READOUT_LABEL: IC50

1. CCO[C@@H]1C[C@H]2C(=O)NC3(CC(C)(C)C3)C(=O)N(C)[C@@H](C3CCCC3)C(=O)N(C)[C@H](C(=O)N(C)C)CC(=O)N(C)[C@@H](CC(C)C)C(=O)N[C@@H]([C@@H](C)CC)C(=O)N(C3CC3)CC(=O)N(C)[C@H]3C/C=C\CCN(C3=O)[C@@H](Cc3ccc(C)cc3)C(=O)N(C)CC(=O)N[C@@H](CCc3cc(F)c(C(F)(F)F)c(F)c3)C(=O)N2C1 [PP2109] | 5.7 nM
2. CCC[C@H]1C(=O)N[C@@H]([C@@H](C)CC)C(=O)N(C)CC(=O)N(C)[C@H]2C/C=C\CCN(C2=O)[C@@H](Cc2ccc(C(F)(F)F)cc2)C(=O)N(C)CC(=O)N[C@@H](CCc2cc(Cl)c3c(ccn3C)c2)C(=O)N2C[C@H](OCC)C[C@H]2C(=O)NC2(CC(C)(C)C2)C(=O)N(C)[C@@H](C2CCCC2)C(=O)N(C)[C@H](C(=O)N(C)C)CC(=O)N1C [PP2950] | 24.2 nM
3. CC[C@H](C)[C@@H]1NC(=O)[C@H](CC(C)C)N(C)C(=O)C[C@@H](C(=O)N2C[C@@H](C)O[C@@H](C)C2)N(C)C(=O)[C@H](C2CCCC2)N(C)C(=O)C2(CCCC2)NC(=O)[C@@H]2CCCN2C(=O)[C@H](CCc2ccc(C(F)(F)F)c(Cl)c2)NC(=O)CN(C)C(=O)[C@H](Cc2ccc(F)cc2)N2CCCCC[C@@H](C2=O)N(C)C(=O)CN(C)C1=O [PP1151] | 97.1 nM
4. CCO[C@@H]1C[C@H]2C(=O)NC3(CCC3)C(=O)N(C)[C@@H](C3CCCC3)C(=O)N(C)[C@H](C(=O)N(C)C)CC(=O)N(C)[C@@H](Cc3ccccc3C)C(=O)N[C@@H]([C@@H](C)CC)C(=O)N(C)CC(=O)N(C)[C@H]3CCCCCN(C3=O)[C@@H](Cc3ccc(C(F)(F)F)cc3)C(=O)N(C)CC(=O)N[C@@H](CCc3cc(F)c(C(F)(F)F)c(F)c3)C(=O)N2C1 [PP0941] | 63.9 nM
5. CC[C@H](C)[C@@H]1NC(=O)[C@H](CC2CCC2)N(C)C(=O)C[C@@H](C(=O)N(C)C)N(C)C(=O)[C@H](C2CCCC2)N(C)C(=O)C2(CC(C)(C)C2)NC(=O)[C@@H]2CC(F)(F)CN2C(=O)[C@H](CCc2cc(F)c(C(F)(F)F)c(F)c2)NC(=O)CN(C)C(=O)[C@H](Cc2ccc(C(F)(F)F)cc2)N2CC/C=C\C[C@@H](C2=O)N(C)C(=O)CN(C)C1=O [PP1716] | 3.8 nM
6. CCO[C@@H]1C[C@H]2C(=O)NC3(CCC3)C(=O)N(C)[C@@H](C3CCCC3)C(=O)N(C)[C@H](C(=O)N3CCOCC3)CC(=O)N(C)[C@@H](Cc3cccc(F)c3)C(=O)N[C@@H]([C@@H](C)CC)C(=O)N(C)CC(=O)N(C)[C@H]3CCCCCN(C3=O)[C@@H](Cc3ccc(C(F)(F)F)cc3)C(=O)N(C)CC(=O)N[C@@H](CCc3cc(F)c(C(F)(F)F)c(F)c3)C(=O)N2C1 [PP0856] | 66.7 nM
